# subject of test: Bs-CspB (Bacillus subtilis, UniProt P32081 1-67)
# assay details: tryptophan fluorescence quenching
outcome measure: Kd (µM)

>>> quantitative_result("ATCCTACTGATTGGCCCAGGTGCTG (ssDNA) [Y-box25]")
3.92

Where do the numbers come from? From paper PMC1636342.
